Tested on: pembrolizumab
measurement-description: Viscosity of pembrolizumab test formulations (mVROC viscometer)
Format: physicochemical
experimental-parameters: 10 mM histidine buffer, 200 mg/mL pembrolizumab, 0.2 M excipient, pH 5.5
quantity-name: Viscosity 1

- cpd-smiles: "COCCOCCN[C@@H](Cc1c[nH]cn1)C(=O)O"
  Viscosity 1: "22.19 mPa-s"

Response field Viscosity 1 (pembrolizumab) for item COCCOCCN(C(=O)COCCOC)[C@@H](CCCNC(=N)N)C(=O)O : 21.12 mPa-s

Response field Viscosity 1 (pembrolizumab) for item COCCOCCOCCOCCN[C@@H](Cc1c[nH]cn1)C(=O)O : 22.82 mPa-s

Value source: patent US20200206350A1
